Catalogue of self-splicing fitness (ln) readings, one per entry.
protocol text: self-splicing fitness, log relative to wild type (ln ratio); higher = more splicing; Tetrahymena group I intron in knt gene, E. coli kanamycin selection, DiMSum; sequences stand for … in CUCUCU…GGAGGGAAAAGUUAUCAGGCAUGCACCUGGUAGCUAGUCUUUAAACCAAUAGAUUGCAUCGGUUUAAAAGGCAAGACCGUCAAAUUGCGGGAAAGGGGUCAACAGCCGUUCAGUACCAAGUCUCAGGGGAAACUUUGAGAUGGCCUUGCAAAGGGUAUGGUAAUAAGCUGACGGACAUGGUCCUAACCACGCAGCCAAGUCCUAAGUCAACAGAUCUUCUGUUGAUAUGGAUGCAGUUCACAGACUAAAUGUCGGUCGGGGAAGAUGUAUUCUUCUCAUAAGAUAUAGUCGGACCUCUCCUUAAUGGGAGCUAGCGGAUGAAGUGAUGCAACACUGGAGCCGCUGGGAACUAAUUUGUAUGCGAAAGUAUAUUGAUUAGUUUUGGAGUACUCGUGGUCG;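 also: selection with 25 µg/mL kanamycin versus none on LB agar overnight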
measurement parameters: 30 °C

>  <biosequence>
UCUAAGCAAUAUUACGGAAU

>  <self-splicing fitness (ln)>
-4.16

$$$$
>  <biosequence>
GAUGAGCAAUAUUACGGUUG

>  <self-splicing fitness (ln)>
-3.87

$$$$
>  <biosequence>
CAAUAGCAAUAUUACGUUUU

>  <self-splicing fitness (ln)>
-5.04

$$$$
>  <biosequence>
UAUUAGCAAUAUUACGACGU

>  <self-splicing fitness (ln)>
-1.02

$$$$
>  <biosequence>
UAGGAGCAAUAUUACGGAUA

>  <self-splicing fitness (ln)>
-2.09

$$$$
>  <biosequence>
ACCAAGCAAUAUUACGUUCC

>  <self-splicing fitness (ln)>
-3.95

$$$$
>  <biosequence>
GAGCAGCAAUAUUACGUAAC

>  <self-splicing fitness (ln)>
-1.36

$$$$
>  <biosequence>
UCCGAGCAAUAUUACGCGCC

>  <self-splicing fitness (ln)>
-2.88

$$$$
>  <biosequence>
AGCGAGCAAUAUUACGUCGU

>  <self-splicing fitness (ln)>
-3.82

$$$$
>  <biosequence>
CGGAAGCAAUAUUACGUACC

>  <self-splicing fitness (ln)>
-2.22

$$$$
>  <biosequence>
AUUGAGCAAUAUUACGUGGU

>  <self-splicing fitness (ln)>
-3.28

$$$$
>  <biosequence>
UCGCAGCAAUAUUACGGGUG

>  <self-splicing fitness (ln)>
-1.16

$$$$
>  <biosequence>
UCCUAGCAAUAUUACGCUGG

>  <self-splicing fitness (ln)>
-3.84

$$$$
>  <biosequence>
AGCAAGCAAUAUUACGCACC

>  <self-splicing fitness (ln)>
-0.646

$$$$
>  <biosequence>
CAACAGCAAUAUUACGGUCG

>  <self-splicing fitness (ln)>
-0.273

$$$$
>  <biosequence>
ACCAAGCAAUAUUACGUAUG

>  <self-splicing fitness (ln)>
-3.59

$$$$

Taken from the supplement of paper PMC7877785.
